Test system: TK-10
Test: NCI tumour cell line growth inhibition, 48 h
Counter-ions that a name gives are not always drawn. Activity calls are given as the source filed them. No stated cut-off is given here; in the data, active = GI50 up to about 1.1 µM and inactive = higher.
Your reply should match one of these outcome classes. active, inactive

compound="CC1=NCCc2c1[nH]c1cc(O)ccc21 [HARMALOL HYDROCHLORIDE]" answer_label=inactive
compound=N#Cc1nc(-c2cccs2)oc1N answer_label=inactive
compound="COC(=O)C12Oc3ccc(-c4ccc5c(c4O)C(O)=C4C(=O)CC(C)C(O)C4(C(=O)OC)O5)c(O)c3C(O)=C1C(=O)CC(C)C2O (centres undefined)" answer_label=active

Given Cc1cc(C)nc(NS(=O)(=O)c2ccc(Nc3c4ccccc4nc4c(C(=O)Nc5ccc(S(=O)(=O)Nc6cc(C)on6)cc5)ccc(Cl)c34)cc2)n1 , state the outcome it received in this test.
inactive

----------
Test system: OVCAR-5
Assay: NCI tumour cell line growth inhibition, 48 h
Active and inactive are the calls of the source. Rule as the data show it: active = GI50 up to about 1.1 µM and inactive = higher.
Readout Kind: GI50

What does the record list as GI50 for CCCCCC/C=C/CCCCCCCc1cccc(O)c1C(=O)O ?
> 100 µM (inactive)

----------
Tested on: SN12C
Assay: NCI tumour cell line growth inhibition, 48 h
Where a name gives a salt, the structure may show the parent alone. The source made the active and inactive calls. Cut-off read from the data, not from the text of the source: active = GI50 up to about 1.1 µM and inactive = higher.
Form field: GI50 (one value per entry).

Below are worked cases with known answers.
compound=CN(C)c1ccc(/C=C2\N=C(c3ccccc3)N(/N=C3\C(=O)Nc4ccccc43)C2=O)cc1 readout_kind=GI50 obs_value="56.9 µM (inactive)"
compound="CC1=NCCc2c1[nH]c1cc(O)ccc21 [HARMALOL HYDROCHLORIDE]" readout_kind=GI50 obs_value="> 100 µM (inactive)"
compound=COc1ccc(Nc2nc3cc(C(F)(F)F)ccc3nc2-c2ccccc2)cc1OC readout_kind=GI50 obs_value="39.7 µM (inactive)"
compound=COc1cc(/C=C/C(=O)c2sc(NNC(C)=O)nc2C)ccc1O readout_kind=GI50 obs_value="> 100 µM (inactive)"
compound="O=C(O)CCSC(CC1(c2ccc(Cl)cc2)NC(=O)CCS1)c1ccccc1 (stereo not given)" readout_kind=GI50 obs_value="18.3 µM (inactive)"

Request the reported GI50 associated with Cc1[nH]c2ncn(/N=C/c3ccccc3)c(=N)c2c1Cc1ccccc1
> 100 µM (inactive)

Follow-up entry: Clc1ccc(C2=NN=C3C(c4ccccc4)=Nc4ccccc4N3C2)cc1
20.9 µM (inactive)

Here is the next compound: O=C(/N=N/c1cccc(Cl)c1)NNc1cccc(Cl)c1
11.7 µM (inactive)

Same again, this time with CN1CCN(c2cc3nc4cc(O)cc(O)c4c(O)c3cc2N)CC1
1.5 µM (inactive)

Now consider O=c1c2cc(S(=O)(=O)Nc3c(Cl)cccc3Cl)ccc2ncn1NS(=O)(=O)c1ccc2ccccc2c1 and answer again.
> 62.5 µM (inactive)

----------
Tested on: K562
Assay: NCI tumour cell line growth inhibition, 48 h
Calls of active or inactive are those of the source. No stated cut-off is given here; in the data, active = GI50 up to about 1.1 µM and inactive = higher.
The reply should name one outcome from 1 = active, 0 = inactive

compound="CC(=O)OCC1OC(OC2CC3C(C)(C)C(O)CC[C@]3(C)C3CCC45CC4(CC[C@H]5C(C)CC(O)C4OC4(C)C)[C@]23C)C(O)C(O)C1O (stereo not given in full)" assay_system=K562 answer_label=0
compound="CCC1=CC(OCc2ccccc2)C(CCN(Cc2ccccc2)C(=O)OCc2ccccc2)C1 (stereo not given)" assay_system=K562 answer_label=0
compound=Cc1cccc2c(=O)c3cccc([C@H](C)C(=O)O)c3oc12 assay_system=K562 answer_label=0
compound=O=[N+]([O-])C(=C1NCCN1)/C(Cl)=C(/Cl)N1CCOCC1 assay_system=K562 answer_label=0

What outcome does the record of this test show for Cn1cc(-c2n[nH]c(-c3ccc(Cl)cc3)nc2=O)c2ccccc21 ?
1

Proceed to O=C(/C=C/c1ccccc1)NC1C=Nc2ccc(Cl)cc2NC1=O (stereo not given)
0

Ok, now O=C(/C=C/C=C/c1ccccc1)c1ccc2c(c1)CCCC2
0

For CC1(C)CC(=O)C(CCC(=O)/C=C/c2ccccc2)C(=O)C1 then?
0

Same for COc1cc(/C=C/C(=O)c2sc(NNC(C)=O)nc2C)ccc1O
0

Consider next the compound COc1ccc(O[C@H](COCc2ccccc2)C[C@@H]2COC(C)(C)O2)cc1 in the same way.
0
